Source of measurements: PubChem BioAssay AID1259407

# Test system: CCRIS mutagenicity, Ames/micronucleus/aberration tests
# TEST: CCRIS mutagenicity studies
# PARTICULARS: Test System: AMES SALMONELLA TYPHIMURIUM; Strain/Indicator: TA1537; Metabolic Activation: RAT, LIVER, S-9, AROCLOR 1254; Method: STANDARD PLATE
Calls of active or inactive are those of the source. No rule for the calls is given here.
PROPERTY NAME: mutagenic call

COc1cc([C@@H]2c3cc4c(cc3[C@H](O)[C@H]3COC(=O)[C@H]23)OCO4)cc(OC)c1OC : inactive; negative
COC/C(=C/c1ccccc1)OC : inactive; negative
CC(=O)c1c(O)cc(O)c2c1C(=O)c1cc(O)cc(O)c1C2=O : inactive; negative
CN1CCN=C(c2ccccc2)c2cc(Cl)ccc21 : inactive; negative
C=C1CC[C@H]2C[C@@H]1C2(C)C : inactive; negative
CC(=O)O[C@]1(C(C)=O)CC[C@H]2[C@@H]3C4OC4(Cl)C4=CC(=O)[C@@H]5C[C@@H]5[C@]4(C)[C@H]3CC[C@@]21C (stereo partly drawn) : inactive; negative
O=C1CCC(=O)N1O : inactive; negative
CC(=O)OCC1=CO[C@@H](OC(=O)CC(C)C)[C@H]2C1=C[C@H](OC(=O)CC(C)C)[C@]21CO1 : inactive; negative
Cc1nc2ccccc2s1 : inactive; negative
CC1(C)[C@@H](O[C@H]2O[C@H](C(=O)O)[C@@H](O)[C@H](O)[C@H]2O[C@@H]2O[C@H](C(=O)O)[C@@H](O)[C@H](O)[C@H]2O)CC[C@]2(C)[C@H]3C(=O)C=C4[C@@H]5C[C@@](C)(C(=O)O)CC[C@]5(C)CC[C@@]4(C)[C@]3(C)CC[C@@H]12 : inactive; negative

Quick note, mutagenic call for `c1ccc2c(c1)ccc1cc3c(ccc4ccccc43)cc12` landed at active; positive

Quick note, mutagenic call for `CCOP(=O)(OCC)O/C(=C\Cl)c1ccc(Cl)cc1Cl` landed at inactive; negative

Quick note, mutagenic call for Cc1cc(O)c2c(c1)C(=O)C13C(=C2O)C(=O)C2C(O)C1C1C(O)C3C(=O)C3=C(O)c4c(O)cc(C)cc4C(=O)C321 (stereo not drawn) landed at inactive; negative

Quick note, mutagenic call for `CCS(=O)(=O)n1ncc(Cl)c(Cl)c1=O` landed at inactive; negative

Quick note, mutagenic call for `Nc1ccc(S(=O)(=O)Nc2cnc3c(Cl)cccc3n2)cc1` landed at inactive; negative

Quick note, mutagenic call for `CCc1ccco1` landed at inactive; negative

Quick note, mutagenic call for `Nc1ccc2cc3ccccc3cc2c1` landed at active; positive

---

# Tested on: CCRIS mutagenicity, Ames/micronucleus/aberration tests
# TEST: CCRIS mutagenicity studies
# PARTICULARS: Test System: AMES SALMONELLA TYPHIMURIUM; Strain/Indicator: TA100; Metabolic Activation: NONE; Method: DESICCATOR
The source made the active and inactive calls. How the calls were made is not given here.
Outcome field: choose from TRUE = active, FALSE = inactive

Req: Entry `CBr` : call = ?
Resp: TRUE

Req: Entry `CC(C)Cl` : call = ?
Resp: TRUE

Req: Entry `CC/C(C)=N\O` : call = ?
Resp: FALSE

Req: Entry `FC(C(F)(F)F)C(F)(F)F` : call = ?
Resp: FALSE

Req: Entry `CC(C)C(C)C` : call = ?
Resp: FALSE

Req: Entry `C=CCCl` : call = ?
Resp: TRUE
